Data credit: ChEMBL document CHEMBL3351759

# assay method text: Antiproliferative activity against human Bel7402 cells after 72 hrs MTT assay
# Assay type: functional, cell-based
# test settings: Bel-7402, 72 h
pIC50 overview
Note: pIC50 values are expressed as the negative base-10 logarithm of concentration in M.

Give the reported pIC50 for this compound. `C=C(C)[C@@H]1CC[C@]2(C(=O)N3CCOCC3)CC[C@]3(C)[C@H](CC[C@@H]4[C@@]5(C)CCC(=O)[C@@](C)(COC(C)=O)[C@@H]5CC[C@]43C)[C@@H]12` 4.98

Give the reported pIC50 for this compound. `C=C(C)[C@@H]1CC[C@]2(C(=O)O)CC[C@]3(C)[C@H](CC[C@@H]4[C@@]5(C)C[C@H](OC(C)=O)[C@H](OC(C)=O)[C@@](C)(COC(C)=O)[C@@H]5CC[C@]43C)[C@@H]12` 4.30

Give the reported pIC50 for this compound. `C=C(C)[C@@H]1CC[C@]2(C(=O)O)CC[C@]3(C)[C@H](CC[C@@H]4[C@@]5(C)CCC(=O)[C@@](C)(CO)[C@@H]5CC[C@]43C)[C@@H]12` 4.47
